This collection of values is drawn from patent US10517889B2.

tested on: human SMAD7 mRNA; experiment: Antisense inhibition of human SMAD7 mRNA expression in Hep3B cells by 3-10-3 cEt gapmers, 10,000 nM, electroporation (Example 2); format: cell-based; conditions: Hep3B cells, electroporation with 10,000 nM antisense oligonucleotide, approximately 24 hours, RTS5062, percent inhibition of SMAD7 mRNA relative to untreated control cells
Strand notation (5' to 3'): a small letter for the sugar, then the base; units joined by * are phosphorothioate-linked, units joined directly phosphodiester-linked; [ ] holds rarer units or linkages, { } end groups; capitals alone tell only the bases. k = constrained ethyl (cEt); [5mC] = 5-methylcytosine; d = 2'-deoxy (DNA)
Classification field: 1 = % Inhibition at or over 50%; 0 = % Inhibition under 50%.

substance: 799528 (k[5mC]*kG*kG*dA*dT*dA*d[5mC]*d[5mC]*dA*dG*dG*dT*dG*kG*kT*kT; antisense) [compound 799528]
assignedLabel: 0

substance: 799842 (antisense kG*kA*kA*dA*dG*dA*dA*dT*dG*dG*dT*dG*dG*kG*kT*kG) [compound 799842]
assignedLabel: 0

substance: 799706 (antisense k[5mC]*kT*kT*dG*dT*dG*dG*dT*dA*dA*dA*dA*dT*kA*k[5mC]*kA) [compound 799706]
assignedLabel: 0

substance: 799684 (antisense kA*kA*kT*dG*d[5mC]*dT*dG*dT*d[5mC]*dA*d[5mC]*d[5mC]*d[5mC]*kT*kG*kT) [compound 799684]
assignedLabel: 1

substance: 799549 (kG*k[5mC]*kT*d[5mC]*d[5mC]*dT*dA*d[5mC]*dT*dG*dT*dT*dG*kG*k[5mC]*kA; antisense) [compound 799549]
assignedLabel: 1

# input for lookup
Check the entry 799785 (k[5mC]*kT*k[5mC]*d[5mC]*dA*dG*dG*dT*dA*dG*dA*dG*dG*k[5mC]*kA*kA; antisense) [compound 799785] : does % Inhibition equal or exceed 50%?
0
